System: HCT-116 colon
method.summary: NCI tumour cell line growth inhibition, 48 h
Item-by-item account of TGI

Look over these answered cases.
Cc1cc(Cl)ccc1NC(=O)NC(C)(C)COC(=O)Nc1cccc(Cl)c1 = > 100 µM
CCOC(=O)c1c(-c2ccc(OC)c(O)c2)c(C#N)c(=S)n(C2OC(CO)C(O)C(O)C2O)c1-c1ccccc1 (stereo not drawn) = > 100 µM

# evaluate next
Prompt: Name the recorded TGI of the compound listed here: O=S1(=O)CC(Br)C(Br)C1 (stereo not drawn)
Completion: 6.53 µM

====

Tested on: SF-268 CNS
method.summary: NCI tumour cell line growth inhibition, 48 h
recorded.endpoint: TGI

Look over these answered cases.
C/C(=C\CNc1nc(Cl)nc2nc[nH]c12)CO = > 100 µM
Cc1cc(Cl)ccc1NC(=O)CCCC(=O)C(C(=O)c1ccccc1)c1ccccc1 (centres undefined) = > 100 µM
COc1ccc(C2NC(=O)Nc3c2c(=O)oc2c3ccc3ccccc32)cc1 (centres undefined) = > 100 µM

# evaluate next
Prompt: Name the recorded TGI of the molecule listed here: O=C1NC(O)CCN1C1CC(O)C(CO)O1 (centres undefined)
Completion: > 100 µM

Value source: PubChem BioAssay (NCI)
